Target: human IL-6 (human, UniProt P05231 30-212)
Sequence (P05231 30-212 limits assumed): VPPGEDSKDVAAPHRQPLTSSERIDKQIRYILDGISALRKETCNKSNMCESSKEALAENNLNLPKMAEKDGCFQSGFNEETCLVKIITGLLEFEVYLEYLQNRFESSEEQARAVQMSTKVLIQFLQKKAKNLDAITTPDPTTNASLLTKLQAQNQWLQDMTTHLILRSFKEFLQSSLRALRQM
Test: SPR Biacore, supernatant, Protein A capture, 37 C
readout kind: log10(kon) (log10 of the value in M⁻¹ s⁻¹)
Note: values are log10 of kon expressed in M⁻¹ s⁻¹.

[
  {
    "binder": "Anti-IL-6 antibody, heavy chain S35H, G66D, Q99E / light chain WT (antibody, IgG1, V domains shown, IgG1; variable domains only) VH: EVQLVESGGGLVQPGGSLRLSCAASGFTFSPFAMHWVRQAPGKGLEWVAKISPGGSWTYYSDTVTDRFTFSLDTSKSTAYLQMNSLRAEDTAVYYCARELWGYYALDIWGQGTLVTVSS VL: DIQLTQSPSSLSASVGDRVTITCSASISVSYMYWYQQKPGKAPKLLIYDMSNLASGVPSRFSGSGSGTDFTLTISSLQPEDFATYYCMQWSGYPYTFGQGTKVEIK",
    "log10(kon)": 5.69
  },
  {
    "binder": "Anti-IL-6 antibody, heavy chain S35H, G66D, Q99A / light chain M32L, M50D, N52S, M88Q (antibody, IgG1, V domains shown, IgG1; variable domains only; VL is variant III) VH: EVQLVESGGGLVQPGGSLRLSCAASGFTFSPFAMHWVRQAPGKGLEWVAKISPGGSWTYYSDTVTDRFTFSLDTSKSTAYLQMNSLRAEDTAVYYCARALWGYYALDIWGQGTLVTVSS VL: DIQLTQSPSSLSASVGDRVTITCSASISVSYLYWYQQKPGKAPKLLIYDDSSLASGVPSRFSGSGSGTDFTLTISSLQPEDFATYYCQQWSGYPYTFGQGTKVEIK",
    "log10(kon)": 6.17
  },
  {
    "binder": "Anti-IL-6 antibody, heavy chain S35H, G66D, Q99R / light chain M32L, M50D, N52S, M88Q (antibody, IgG1, V domains shown, IgG1; variable domains only; VL is variant III) VH: EVQLVESGGGLVQPGGSLRLSCAASGFTFSPFAMHWVRQAPGKGLEWVAKISPGGSWTYYSDTVTDRFTFSLDTSKSTAYLQMNSLRAEDTAVYYCARRLWGYYALDIWGQGTLVTVSS VL: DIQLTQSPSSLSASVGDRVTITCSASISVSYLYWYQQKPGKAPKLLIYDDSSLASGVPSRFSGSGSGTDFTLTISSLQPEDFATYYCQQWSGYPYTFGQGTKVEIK",
    "log10(kon)": 5.45
  },
  {
    "binder": "Anti-IL-6 antibody, heavy chain WT / light chain WT (antibody, IgG1, V domains shown, IgG1; variable domains only; also called parent; wild-type) VH: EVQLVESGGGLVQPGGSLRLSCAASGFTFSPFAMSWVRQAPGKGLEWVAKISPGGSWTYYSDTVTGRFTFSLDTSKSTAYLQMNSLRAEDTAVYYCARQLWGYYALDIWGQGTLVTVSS VL: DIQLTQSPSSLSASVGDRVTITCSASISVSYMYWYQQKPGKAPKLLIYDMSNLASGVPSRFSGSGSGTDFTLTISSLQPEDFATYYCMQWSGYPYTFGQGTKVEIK",
    "log10(kon)": 5.94
  }
]

Consider now this further binder.
Give reported log10(kon) value for Anti-IL-6 antibody, heavy chain S35H, G66D, Q99G / light chain M32L, M50D, N52S, M88Q (antibody, IgG1, V domains shown, IgG1; variable domains only; VL is variant III) VH: EVQLVESGGGLVQPGGSLRLSCAASGFTFSPFAMHWVRQAPGKGLEWVAKISPGGSWTYYSDTVTDRFTFSLDTSKSTAYLQMNSLRAEDTAVYYCARGLWGYYALDIWGQGTLVTVSS VL: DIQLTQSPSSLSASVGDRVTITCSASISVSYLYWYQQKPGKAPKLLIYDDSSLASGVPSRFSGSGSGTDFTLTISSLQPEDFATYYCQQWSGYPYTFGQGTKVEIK
6.48
